tested on: DU-145 prostate; assay: NCI tumour cell line growth inhibition, 48 h
TGI overview
measured_parameter: TGI

[[record]]
molecule = "COC(=O)[C@]1(C)[C@H]2C[C@H]3O[C@H]4[C@H](O)[C@@H](O)OC(CC(O)C(C5=CC(=O)OC5)C(C5=CC(=O)OC5)C(O)CC56CCCCC7[C@@H](C)[C@H](C[C@H]8[C@](C)(C(=O)OC)[C@H](O)CC[C@]78C)O[C@H]([C@@H](O)[C@H](O)O5)[C@H]6O)(CCCCC([C@@H]3C)[C@]2(C)CC[C@@H]1O)[C@H]4O (some centres undefined)"
target_or_test_system = "DU-145 prostate"
measured_parameter = "TGI"
result = "0.219 µM"

[[record]]
molecule = "COC(=O)c1ccc2c(c1)C(=O)c1c-2n(CCCCl)c(=O)c2cc(OC)c(OC)cc12"
target_or_test_system = "DU-145 prostate"
measured_parameter = "TGI"
result = "> 100 µM"

[[record]]
molecule = "CON(C)C(=O)C(C)NC(=O)OC(C)(C)C (centres undefined)"
target_or_test_system = "DU-145 prostate"
measured_parameter = "TGI"
result = "> 100 µM"

[[record]]
molecule = "CC(N)=O.[Cl][Pt][Cl].[NH-]c1ccn(C2OC(CO)C(O)C2O)c(=O)n1 (centres undefined)"
target_or_test_system = "DU-145 prostate"
measured_parameter = "TGI"
result = "> 100 µM"


====

tested on: RPMI-8226 leukemia; experiment: NCI tumour cell line growth inhibition, 48 h
measured_parameter: GI50

[[record]]
molecule = "CN(C)CCS(=O)(=O)Nc1cc(-c2ccc3ncnc(Nc4ccc(F)c(Cl)c4)c3c2)cnc1Cl"
result = "1040 nM"

[[record]]
molecule = "CCOc1cc(/C=C/C(=O)CC(=O)/C=C/c2ccc(OC(=O)CNCCN(CC)CC)c(OCC)c2)ccc1OC(=O)CNCCN(CC)CC"
result = "450 nM"

[[record]]
molecule = "COc1ncc2cc1NS(=O)(=O)c1cccc(c1)C(=O)NCC1=CC=C(S1)c1ncnc3c1SC2=C3C"
result = "202 nM"

[[record]]
molecule = "O=C(Nc1nc2c(s1)CCc1c-2c(Br)n(Cc2ccccc2)c1Br)c1ccccc1"
result = "11400 nM"

[[record]]
molecule = "O=C(Nc1cccc(-n2cc(-c3ccncc3)c(-c3ccc(O)c(Cl)c3)n2)c1)Nc1ccc(Cl)c(Cl)c1"
result = "1490 nM"

[[record]]
molecule = "Cc1ccc(O)cc1Nc1ccnc2cc(-c3ccccn3)ccc12"
result = "4250 nM"

[[record]]
molecule = "CCN(CC)C(=O)CCCCCn1c2ccccc2c2c3c(c4c5ccccc5[nH]c4c21)C(=O)N(O)C3=O"
result = "3060 nM"

[[record]]
molecule = "Cc1ccc(NC2=CC(=O)C(=O)c3ccccc32)c(C)c1"
result = "4840 nM"

[[record]]
molecule = "Nc1c(C(=O)Nc2ccccn2)sc2nc3c(cc12)CCCCCC3"
result = "915 nM"

[[record]]
molecule = "CCN(CC)CCCNc1c2ccc(Cl)cc2nc2ccc(OC)cc12"
result = "42 nM"

[[record]]
molecule = "CC(C)C/C(=N\\NC(=O)c1ccncc1)c1cc(Cl)ccc1O"
result = "461 nM"

[[record]]
molecule = "CCc1ccc(C2=NN(c3ccc(S(C)(=O)=O)cc3)C(=O)CC2)cc1"
result = "3970 nM"

[[record]]
molecule = "COc1cc(OC)c(/C=C/C(=O)c2c(N)cc(OC)cc2OC)c(OC)c1"
result = "815 nM"

[[record]]
molecule = "CN(c1ccc(NC(=O)NCCN2CCOCC2)cc1)c1ccnc(Nc2ccc(CS(C)(=O)=O)cc2)n1"
result = "> 25000 nM"

[[record]]
molecule = "CC/C(=C(/c1ccc(/C=C/C(=O)O)cc1)c1ccc2[nH]ncc2c1)c1ccc(F)cc1Cl"
result = "7720 nM"

[[record]]
molecule = "Nc1ccn([C@@H]2S[C@H](CO)[C@@H](O)[C@@H]2F)c(=O)n1"
result = "2650 nM"

[[record]]
molecule = "CN(C)c1ccc2c(c1)OC(N)=C(C#N)C2c1ccc2c(c1)CCCN2C (centres undefined)"
result = "4070 nM"

[[record]]
molecule = "CCOC(=O)C1=CSC2=NC3=C(CCC/C3=C\\c3cc(OC)c(OC)c(OC)c3)C(c3cc(OC)c(OC)c(OC)c3)N12 (centres undefined)"
result = "333 nM"

[[record]]
molecule = "c1ccc2c(c1)[O][Sn][O]2"
result = "7.54 µg/mL"


====

GI50 overview
system: NCI-H23 lung; experiment: NCI tumour cell line growth inhibition, 48 h
measured_parameter: GI50

[[record]]
molecule = "Cc1cc(-c2ccco2)cc(C)c1/C=C/c1cncc(-c2nn[nH]n2)c1"
result = "> 25 µM"

[[record]]
molecule = "N#Cc1cccc(C2C3=C(COC3=O)N(CCO)c3cc4c(cc32)CCC4)c1 (centres undefined)"
result = "0.302 µM"

[[record]]
molecule = "Nc1ccn([C@@H]2S[C@H](CO)[C@@H](O)[C@@H]2F)c(=O)n1"
result = "0.0586 µM"

[[record]]
molecule = "COC(=O)C1=Nc2ccc(F)cc2/C1=C/c1sc(=S)[nH]c1O"
result = "0.408 µM"

[[record]]
molecule = "C=CC[PH+](c1ccccc1)c1ccccc1.C=CC[PH+](c1ccccc1)c1ccccc1.[Pt+2].[S-]c1ncccn1.[S-]c1ncccn1"
result = "17.9 µM"

[[record]]
molecule = "COC(=O)c1ccc2c(c1)C(=O)c1c-2n(CCCCl)c(=O)c2cc(OC)c(OC)cc12"
result = "> 100 µM"

[[record]]
molecule = "CCOC(=O)c1cc2cc(OCc3ccccc3)ccc2[nH]1"
result = "> 100 µM"

[[record]]
molecule = "Cc1nn2c(-c3nc4cc(Cl)c(Cl)cc4[nH]3)c(-c3ccc(F)cc3)nc2s1"
result = "21.7 µM"

[[record]]
molecule = "COc1cc2c3c(n(CCCN4CCSCC4)c(=O)c2cc1OC)-c1cc2c(cc1C3=O)OCO2"
result = "> 100 µM"

[[record]]
molecule = "CCc1c(C#N)c(SC(C(N)=O)c2ccccc2)nc(N2CCC(N)CC2)c1C#N (centres undefined)"
result = "16.4 µM"

[[record]]
molecule = "Cc1ccc(-c2nc(C(Cl)Cl)nc3cc(C)nn23)cc1"
result = "0.742 µM"

[[record]]
molecule = "O=S(=O)(NCCCNc1nccc(-c2c(-c3cccc(F)c3)nc3occn23)n1)c1cccc2ccccc12"
result = "14.8 µM"

[[record]]
molecule = "Cc1ccc(O)cc1Nc1ccnc2cc(-c3ccccn3)ccc12"
result = "3.59 µM"

[[record]]
molecule = "C=C(C)[C@@H]1CC[C@]2(C(=O)n3ccnc3)CC[C@]3(C)[C@H](CC[C@@H]4[C@@]5(C)CCCNC(C)(C)[C@@H]5CC[C@]43C)[C@@H]12"
result = "1.78 µM"

[[record]]
molecule = "Cc1ccc(NC2=CC(=O)C(=O)c3ccccc32)c(C)c1"
result = "1.78 µM"

[[record]]
molecule = "c1ccc2c(c1)[O][Sn][O]2"
result = "21.3 mg/L"

[[record]]
molecule = "N=C(N)c1ccc(OCCCCCOc2ccc(C(=N)N)cc2)cc1"
result = "3.34 µM"

[[record]]
molecule = "COc1cc(OC)c(/C=C/C(=O)c2c(N)cc(OC)cc2OC)c(OC)c1"
result = "0.826 µM"

[[record]]
molecule = "CC/C(=C(/c1ccc(/C=C/C(=O)O)cc1)c1ccc2[nH]ncc2c1)c1ccc(F)cc1Cl"
result = "15.4 µM"


====

tested on: NCI-H23 lung; experiment: NCI tumour cell line growth inhibition, 48 h
measured_parameter: TGI

[[record]]
compound = "CC1=CC(=O)c2c(O)c3c(c(O)c2C1=O)C1C(O)C(C3=O)C23C(=O)c4c(O)c(C)cc(O)c4C(O)=C2C(=O)CC(O)C13 (stereo not given)"
measured_parameter = "TGI"
result = "14.1 µM"

[[record]]
compound = "COc1cc(S(=O)(=O)Nc2ccc(-c3csc(/N=C\\c4cccs4)n3)cc2)ccc1Cl"
measured_parameter = "TGI"
result = "> 100 µM"

[[record]]
compound = "CCN(CC)CCS(=O)(=O)CCNc1ccnc2cc(Cl)ccc12"
measured_parameter = "TGI"
result = "14.9 µM"

[[record]]
compound = "C1CCN2CC3CONC3C2C1 (stereo not given)"
measured_parameter = "TGI"
result = "> 100 µM"

[[record]]
compound = "CCOC(=O)C(C)(Cc1ccc(O)cn1)NC(=O)c1ccccc1 (stereo not given)"
measured_parameter = "TGI"
result = "> 100 µM"

[[record]]
compound = "CC(=O)O[C@H]1C[C@H]2[C@@H]([C@H](OC(C)=O)C[C@@H]3CC4(CC[C@@]32C)OOC2(CCCCC2)OO4)[C@@H]2CC[C@H]([C@H](C)CCC(=O)O)[C@@]12C"
measured_parameter = "TGI"
result = "16.6 µM"

[[record]]
compound = "c1ccc2c(c1)[O][Sn][O]2"
measured_parameter = "TGI"
result = "113 µg/mL"

[[record]]
compound = "O/N=C1\\CSc2ccccc2C1"
measured_parameter = "TGI"
result = "> 100 µM"

[[record]]
compound = "CCc1ccc(C2=NN(c3ccc(S(C)(=O)=O)cc3)C(=O)CC2)cc1"
measured_parameter = "TGI"
result = "> 24.3 µM"

[[record]]
compound = "CCN(CC)Cc1cc(Nc2cc(C(F)(F)F)c(C#N)c3nc4ccccc4n23)ccc1O"
measured_parameter = "TGI"
result = "8.29 µM"

[[record]]
compound = "O=C(CN(/C=C/C(=O)C(F)(F)F)c1ccccc1)c1ccc(F)cc1"
measured_parameter = "TGI"
result = "> 100 µM"

[[record]]
compound = "C1=C(c2ccccc2)C(OC2Oc3ccccc3C=C2c2ccccc2)Oc2ccccc21 (stereo not given)"
measured_parameter = "TGI"
result = "> 100 µM"

[[record]]
compound = "OC1CSCCSCCCSCCSC1"
measured_parameter = "TGI"
result = "> 100 µM"

[[record]]
compound = "CC1(C)CC(O)CC(C)(C)N1.CC1(C)CC(O)CC(C)(C)N1.CC1(C)CC(O)CC(C)(C)N1.CC1(C)CC(O)CC(C)(C)N1.Cl.[Ti]"
measured_parameter = "TGI"
result = "> 100 µM"

[[record]]
compound = "O=S(=O)(/N=C(\\NO)Nc1ccc(Cl)cc1)c1cc(S(=O)(=O)c2ccccc2)cs1"
measured_parameter = "TGI"
result = "41.9 µM"

[[record]]
compound = "CC/C(=C(/c1ccc(/C=C/C(=O)O)cc1)c1ccc2[nH]ncc2c1)c1ccc(F)cc1Cl"
measured_parameter = "TGI"
result = "37.8 µM"

[[record]]
compound = "COc1ccc2c(C(=O)c3c(C)n(CCN4CCOCC4)c4ccccc34)cccc2c1"
measured_parameter = "TGI"
result = "> 100 µM"

[[record]]
compound = "CC(C)c1cc(C(C)C)c(Cl)c(Cl)c1O (tested in a mixture with another compound)"
measured_parameter = "TGI"
result = "> 100 µM"

[[record]]
compound = "NC(N)=N/N=C\\c1c(-c2ccccc2)nc2sccn12"
measured_parameter = "TGI"
result = "25.4 µM"

[[record]]
compound = "CN(CCCNC(=O)c1c2ccc3ccccc3c2nn1C)CCCNC(=O)c1c2ccc3ccccc3c2nn1C"
measured_parameter = "TGI"
result = "29.4 µM"

